- test_system: T1, Orencia
- T1 sequence (chain, INN chains, looked up, looked up): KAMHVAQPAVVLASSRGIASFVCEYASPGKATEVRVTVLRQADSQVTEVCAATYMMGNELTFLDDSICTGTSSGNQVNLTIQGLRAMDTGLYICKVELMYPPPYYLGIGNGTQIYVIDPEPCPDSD
- assay_procedure: ELISA, MBP fusion in E. coli lysate on Orencia
Recorded ELISA A450 by entry

binder	ELISA A450
GGCMHPFLPVVSHHFCGA (peptide, not shown: large carriers; small tags and cut ends, MBP fusion) [C4-302mat-3-1-48]	0.903
GGCMHPFLPVVSHHFCGG (peptide, not shown: large carriers; small tags and cut ends, MBP fusion) [C4-302mat-1-1-24]	0.78
GGCMHPFLRVVSHHFCGG (peptide, not shown: large carriers; small tags and cut ends, MBP fusion; also called #32) [C4-302mat-1-1-37]	0.665
GGCMHPYLQVVSHHFCGR (peptide, not shown: large carriers; small tags and cut ends, MBP fusion) [C4-302mat-3-1-2]	1.45

Data provenance is patent US20240092836A1.
